# System: LOX IMVI melanoma
# testDescription: NCI tumour cell line growth inhibition, 48 h
// values below are reported GI50

Study these solved cases before continuing.
| molecule | observed |
| --- | --- |
| Cn1cc(-c2csc(-c3cn(C(=O)OC(C)(C)C)c4ccccc34)n2)c2cccnc21 | 3.53 µM |
| COc1ccc(C2C3=C(COC3=O)N(CCO)c3cc4c(cc32)CCC4)cc1 (stereo not drawn) | 3.1 µM |

Next:
Reported GI50 (LOX IMVI melanoma) for entry COc1ccc(/C=C/C(=O)c2ccc(Nc3nc(Nc4ccc(F)cc4)nc(Nc4ccc(F)cc4)n3)cc2)cc1 is 21.7 µM
